# Procedure Text: Blood glucose in female C57BL/6J ob/ob mice (Example 11)
# Type: in vivo, mouse
# Experimental Context: 1 mg/day ip, Day 4
Square brackets hold non-standard residues; d marks the D form. Ends that are not written are not given here.
Property Name: Serum glucose level (mg/dL)
Quick reminder: number only, in mg/dL, skip the unit.

Field: example entries. Status: answers known.
Ser-Cys-[D-Ser]-Leu-Pro-Gln-Thr (SC[dS]LPQT) [[D-Ser-3]-OB3]	337.0
[D-Ser]-Cys-Ser-Leu-Pro-Gln-Thr ([dS]CSLPQT) [[D-Ser-1]-OB3]	360.1

Check the records and state Serum glucose level for Ser-Cys-Ser-Leu-Pro-[D-Gln]-Thr (SCSLP[dQ]T) [[D-Gln-6]-OB3]
354.5

Please give the documented Serum glucose level of Ser-Cys-Ser-Leu-Pro-Gln-[D-Thr] (SCSLPQ[dT]; not fully specified; printed as Ser-Cys-Ser-Leu-Pro-Gln-[D-Thr]) [[D-Thr-7]-OB3]
405.5
